- ASSAY NAME: forskolin-driven CRE-LacZ activity in PC12 – cell-based, CRE-LacZ reporter, forskolin-stimulated, primary screen (AID 1146);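 further: PC12 cells with 6xCRE LacZ reporter stimulated by forskolin 10 µM; beta-galactosidase reporter signal reflecting CREB driven transcription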
- MEASUREMENT PARAMETERS: luminescence, 4.5 h, higher = more signal, called active from +8 up or from −8 down
Please enter MET where z-score is greater than or equal to 0.2, and NOT MET where it is lower.

Solved entries:
compound="CC(C)N1CC=CC23O[C@@H]4C=CCOC(=O)[C@@H]4[C@H]2C(=O)N(CCCCCCO)[C@@H]3C1=O (some centres undefined)" answer_label="NOT MET"
compound=C=C[C@@H](O)[C@H]1CC(c2ccccc2)=NO1 answer_label="NOT MET"
compound=COc1ccc([Si](C)(C)[C@@H]2[C@@H](CCO)O[C@]3(C(=O)N(Cc4ccccc4)c4ccc(N5CCCCC5=O)cc43)[C@H]2C)cc1 answer_label="NOT MET"
compound=COC(=O)C(CC#Cc1ccc2c(c1)[C@]1(C(=O)N2)[C@H](c2ccccc2OCCO)N2[C@H](c3ccccc3)[C@H](c3ccccc3)OC(=O)[C@H]2[C@@H]1C(=O)Nc1nc2ccccc2s1)C(=O)OC answer_label=MET
compound=COC(=O)[C@@]1(Cc2ccc(OC)cc2)[C@H]2c3cc(C(=O)N(C)C)n(Cc4cc(F)c(F)c(F)c4)c3C[C@H]2CN1C(=O)c1ccccc1 answer_label=MET

Exam item: decide whether the reported z-score for [N-]=[N+]=Nc1ccccc1[C@H]1OC(c2ccc(OCCCO)cc2)=N[C@@]1(Cc1ccccc1)C(=O)NCc1ccccc1 is at least 0.2.
Marked response: NOT MET

Exam item: Reported z-score reaches at least 0.2 for Cc1ccccc1C(O)C1C=CC2C(=O)N(Cc3ccccc3)C(=O)C2N1n1cnnc1 (centres undefined) ?
Marked response: MET

Exam item: Does the compound COc1ccc([Si](C)(C)[C@H]2[C@H](CCn3cc(CCO)nn3)O[C@@]3(C(=O)N(Cc4cccc(N5C(=O)c6cccc7cccc5c67)c4)c4ccccc43)[C@@H]2C)cc1 have recorded z-score that is 0.2 or more?
Marked response: NOT MET

###

- TESTED TARGET: Alpha-bungarotoxin (Bungarus multicinctus)
- ASSAY NAME: compounds binding labelled alpha-BTX control protein – biochemical, small-molecule microarray, Alexa647 label, 635/667 nm fluorescence, artefact control for SMM control protein annotation, profiling panel (AID 1117)
- MEASUREMENT PARAMETERS: alpha-BTX-A647 binding fluorescence, higher = more signal
# composite z-score per entry
In your answer, state the number alone without any accompanying words.

compound=C[N+](C)(C)CCCCCCNC(=O)[C@@H]1C[C@@H]2C(=O)NCC(=O)N2[C@@H]1c1ccc(O)cc1 outcome_measure="composite z-score" test_value=1.9
compound="C=CC[C@@]1(C(=O)NCC(O)CO)N=C(c2ccc(OCCCO)cc2)O[C@@H]1c1ccccc1 (some centres undefined)" outcome_measure="composite z-score" test_value=2.59
compound=CCCC=C(CCC)[C@@H](NS(=O)(=O)c1cccc2cccnc12)c1ccc(C(=O)OC)cc1 outcome_measure="composite z-score" test_value=-0.0527

Lab note: next compound to report on.
Exam item: Form field - read-out: composite z-score; system: Alpha-bungarotoxin (Bungarus multicinctus); submitted item: CN1C(=O)C2C=CC(C(O)COCc3ccccc3)N(Nc3ccccc3)C2C1=O (centres undefined)
Marked response: 0.347

###

// values below are reported z-score
- ASSAY NAME: blockers of DNA damage checkpoint Chk1 activation – imaging, HeLa, hydroxyurea, phospho-Chk1 nuclear intensity, primary screen (AID 1187); further: test concentration not given here
- MEASUREMENT PARAMETERS: hydroxyurea-induced phospho-Chk1 immunofluorescence imaging, higher = more signal
The source made the active and inactive calls. How the calls were made is not given here.

Example entries and their recorded answers appear below.
compound="CC(C)(C)N1CC=CC23O[C@@H]4C=CCCOC(=O)C4[C@H]2C(=O)N(CCCO)[C@@H]3C1=O (stereo partly drawn)" outcome_measure=z-score test_value="-0.102 (inactive)"
compound=COc1ccc(C#Cc2ccc3c(c2)[C@]2(C(=O)N3)[C@H](c3ccc(OCCO)cc3)N3[C@H](c4ccccc4)[C@H](c4ccccc4)OC(=O)[C@H]3[C@@H]2C(=O)N2CCN(c3ncccn3)CC2)cc1 outcome_measure=z-score test_value="-0.0676 (inactive)"

The record that follows has no z-score shown yet.
Exam item: Entry C[N+](C)(C)CCCCCCNC(=O)[C@@H]1C[C@@H]2C(=O)NCC(=O)N2[C@@H]1c1ccc(O)cc1 : reported z-score = ?
Marked response: 0.992 (inactive)

###

- TESTED TARGET: Torsin-1A (Homo sapiens) (UniProt O14656)
- Sequence (O14656 whole entry, looked up): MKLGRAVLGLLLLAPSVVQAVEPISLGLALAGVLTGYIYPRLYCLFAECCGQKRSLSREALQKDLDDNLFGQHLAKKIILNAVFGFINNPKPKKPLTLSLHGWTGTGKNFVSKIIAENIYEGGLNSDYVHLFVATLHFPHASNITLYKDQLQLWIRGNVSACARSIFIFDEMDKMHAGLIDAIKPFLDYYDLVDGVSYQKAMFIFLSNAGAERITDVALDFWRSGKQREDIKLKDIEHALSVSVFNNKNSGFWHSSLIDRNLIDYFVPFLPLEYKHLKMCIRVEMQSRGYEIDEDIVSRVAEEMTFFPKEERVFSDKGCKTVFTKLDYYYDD
- ASSAY NAME: torsin A mutant lysate binding on microarrays – cell lysate, small-molecule microarray, COS7 lysate, 635/667 nm fluorescence, primary screen (AID 1150);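 further: score pools 667 nm emission and signal to noise measuring lysate protein binding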
- MEASUREMENT PARAMETERS: COS7 hTOR1A mutant lysate, 635 nm fluorescence, higher = more signal
Is composite z-score at least 0.2? Then Met. If not, Not met.

compound_string=COCCOC(=O)N1C(=O)[C@@]2(c3cc(C#CCC(C(=O)OC)C(=O)OC)ccc31)[C@H](c1ccc(OCCO)cc1)N1[C@H](c3ccccc3)[C@H](c3ccccc3)OC(=O)[C@H]1[C@@H]2C(N)=O tested_target="Torsin-1A (Homo sapiens) (UniProt O14656)" answer_label=Met

Exam item: Please indicate if the recorded composite z-score for O=C(Nc1cc(Br)ccc1C(=O)NCc1cccc(O)c1)c1ccccc1 meets or exceeds 0.2.
Marked response: Met

Exam item: Could you tell me if the measured composite z-score of COCCCNC(=O)[C@@]1(Cc2ccccc2I)c2ccccc2C(=O)N(Cc2ccccc2Cl)[C@H]1c1ccc(CO)cc1 reaches 0.2 or more?
Marked response: Not met

###

- ASSAY NAME: blood-stage malaria parasite viability loss – strain 3D7, DAPI fluorescence, 100 nL, primary screen (AID 1184);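 further: parasites grown inside human red blood cells in medium with human serum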
- MEASUREMENT PARAMETERS: P. falciparum 3D7 growth, 3 d, higher = more signal
OUTCOME MEASURE: z-score
Response field accepts a number only; no unit should be typed.

Some compounds with known z-score results, for comparison:
compound=Cc1ccc(N2C(=O)c3ccccc3[C@](C)(C(=O)NC(C)C)[C@@H]2c2ccc(CO)cc2)nc1 test_value=-0.736
compound=C[C@H]1ON(c2ccccc2)[C@@H](c2ccccc2)[C@@H]1C(=O)N1C(=O)OC[C@@H]1c1ccccc1 test_value=-0.968
compound="COc1cc(C(O)C2C=CC3C(=O)NC(=O)C3N2Nc2ccc(Cl)cc2Cl)cc(OC)c1OC (centres undefined)" test_value=-0.395
compound=COCC(=C=CC[C@@H](O)c1ccccc1OCCO)C[C@@H](O)c1ccccn1 test_value=-0.991
compound=CC(C)CNC(=O)[C@@]1(c2ccc([N+](=O)[O-])cc2)CC(=O)N(C(C)C)[C@@H]1c1ccc(CO)cc1 test_value=-0.253
compound=COc1cccc(C)c1NC(=O)O[C@H]1[C@H](OC(=O)Nc2ccccc2)[C@H](OC(=O)Nc2ccccc2)[C@@H](OC)O[C@@H]1CO test_value=-1.51

Exam item: Reported z-score for CN1C(=O)C2C=CC(C(O)c3cccc4ccccc34)N(NC(=O)OC(C)(C)C)C2C1=O (centres undefined) : what is it?
Marked response: 0.99

Exam item: Data request, read-out z-score, for NCCCCCCNC(=O)[C@H]1C[C@H]2C(=O)N3CCC[C@H]3C(=O)N2[C@H]1c1ccc(O)cc1
Marked response: 0.0311

Exam item: What value of z-score has been recorded for this entry: CC(C)(C)OC(=O)CC[C@@]1(C(=O)N2CCCCC2)N=C(c2ccc(OCCCO)cc2)O[C@@H]1c1ccccc1N=[N+]=[N-]
Marked response: -2.08

Exam item: Which z-score value is on record for O=C1C2C=CC(C(O)c3cccc4ccccc34)N(Nc3ccccc3)C2C(=O)N1c1ccccc1 (centres undefined) ?
Marked response: -0.176

Exam item: Record request: z-score value, item [N-]=[N+]=Nc1ccccc1C[C@]1(C(=O)NCCN2CCOCC2)N=C(c2ccc(OCCCO)cc2)O[C@H]1c1ccccc1N=[N+]=[N-]
Marked response: -2.21

Exam item: z-score lookup needed for COC(=O)[C@@]1(Cc2ccc(OC)cc2)[C@H]2c3cc(C(=O)N4CCCC4)n(CCF)c3C[C@H]2CN1C(=O)c1ccccc1 , thanks.
Marked response: -1.8

Exam item: For the compound CN1C(=O)C2C=CC(C(O)COCc3ccccc3)N(Nc3ccccc3)C2C1=O (centres undefined) , what z-score is on record?
Marked response: 0.872

Exam item: Would you mind telling me what z-score value was observed for COC(=O)[C@H]1N=C(c2ccc(OCCCO)cc2)O[C@H]1c1ccccc1CN=[N+]=[N-] ?
Marked response: -1.79

Exam item: What does the data say about its z-score? Entry: COCCOC(=O)N1C(=O)[C@@]2(c3cc(C#CCCO)ccc31)[C@H](C(=O)NC[C@H](O)c1ccccc1)[C@H]1C(=O)O[C@H](c3ccccc3)[C@H](c3ccccc3)N1[C@@H]2c1ccccc1OCCO
Marked response: -0.89

Exam item: z-score for COCCOC(=O)N1C(=O)[C@@]2(c3ccccc31)[C@H](c1ccccc1OCCO)N1[C@H](c3ccccc3)[C@H](c3ccccc3)OC(=O)[C@H]1[C@@H]2C(=O)N1CCc2cc(OC)c(OC)cc2C1 ?
Marked response: -2.46

Exam item: Consider the compound shown here: O=C1CSC(c2cccc([N+](=O)[O-])c2)N1c1ccccc1 (centres undefined) What is its recorded z-score?
Marked response: 0.464

Exam item: Data request, read-out z-score, for O=C1C2C=CC(C(O)c3ccc(Br)cc3)N(Nc3ccccc3)C2C(=O)N1c1ccccc1 (centres undefined)
Marked response: -0.18

Exam item: Need z-score of CC(C)N1CC=CC23O[C@@H]4C=CCOC(=O)[C@@H]4[C@H]2C(=O)N(CCCCCCO)[C@@H]3C1=O (some centres undefined) , thanks.
Marked response: -0.511

Exam item: Consider the compound shown here: COCC1=C([C@H](O)CCc2ccccc2)[C@H](CO)[C@@H]2C(=O)N(C)C(=O)[C@@H]2C1 What is its recorded z-score?
Marked response: -0.119

Exam item: Recorded z-score for C/C=C/[C@@H](CCn1cc([C@H](O)c2ccccc2)nn1)[Si](C)(C)c1ccc(OC)cc1 , please?
Marked response: -0.689

Exam item: Given C[N+](C)(C)CCCC[C@@H]1NC(=O)[C@@H]2C[C@H](C(=O)O)[C@H](c3cccc(OCCO)c3)N2C1=O , state its recorded z-score.
Marked response: -0.0179

Exam item: GET /values?readout=z-score&item= O=C(Nc1cc(Br)ccc1C(=O)NCc1cccc(O)c1)c1ccccc1
Marked response: -0.64

Exam item: // query z-score value for entry CC(C)(C)OC(=O)CC[C@@]1(C(=O)N2CCCCC2)N=C(c2ccc(OCCCO)cc2)O[C@@H]1c1ccccc1CN=[N+]=[N-]
Marked response: -2.24
